Tested on: MS2 coat protein
method.summary: apparent KD of MS2 coat protein; designed switch direction (-1 OFF switch, 1 ON switch): 1; higher = weaker reporter binding
applied.conditions: input ligand: none
Please note: rule met applies when apparent KD of MS2 coat protein is 0.1 µM or greater, and rule not met applies otherwise.

[[record]]
biopolymer_sequence = "GAGCCAGUCCGAGGAUAUUCAUAUAAAUUAAAUACAUGAGGAUCACCCAUGUAGGCGGAGCCUUGGGAGAAGGCGGACUGGCUC [Xeonanisa>>5] (Eterna round: R96, puzzle: Same State NG 2)"
discrete_label = "rule not met"

[[record]]
biopolymer_sequence = "CCAAAGUACAAUUUAGAUCUACAUGAGGAUCACCCAUGUACUGAGGAUAUCAGCUCGUUUAGAGCUGAGAAGGCAGAAUUAAUU [SSNG3/4-A3] (Eterna round: R96, puzzle: Same State NG 3)"
discrete_label = "rule met"

[[record]]
biopolymer_sequence = "ACAUGAGAGUUAGGAUAUGUUGUACCUACAUGUGACAUGAGGAUCACCCAUGUGGUAAGUAUGAGGCAGAAGGGACAGAUAUGU [Equivalence 46 - Jieux - Same State NG 2] (Eterna round: R96, puzzle: Same State NG 2)"
discrete_label = "rule met"

[[record]]
biopolymer_sequence = "AUAUUUAAUGCAGGAUAUGAUUAACAUGAGGAUCACCCAUGUGGUGUUGUGAGUAAGGAGAGUGAUCAGAAGGGCAUUUUUUUU [JMF's solution 100] (Eterna round: R96, puzzle: Same State NG 2)"
discrete_label = "rule met"

[[record]]
biopolymer_sequence = "CCUGCAAUUAACGCCUACAUGAGGAUCACCCAUGUAUGUAGGCAGGAUAUCGUUUGCUUUGCAAACGAGAAGGGCUGUAGUAGC [salish99_SSNG3_R04_002] (Eterna round: R96, puzzle: Same State NG 3)"
discrete_label = "rule not met"

[[record]]
biopolymer_sequence = "GAGUAGUUGGGAGGAUAUCGAUUGUUAUAGAAUCGAGAAGGUUUUAACAUGAGGAUCACCCAUGUAGGACUAUUCCUGUGUAUC [Parity 73 - Jieux - Same State NG 1] (Eterna round: R96, puzzle: Same State NG 1)"
discrete_label = "rule met"

[[record]]
biopolymer_sequence = "GAGGGACGGACGAACAUGAGGAUCACCCAUGUCCUCGGAGGUCAGGAUAUCCGGAGGUAGCCGAAGGAGAAGGGACGGUGAACC [AK SSNG3-V2-31.1] (Eterna round: R96, puzzle: Same State NG 3)"
discrete_label = "rule not met"

[[record]]
biopolymer_sequence = "GCCGGCUGGUGAGGAUAUGGCGCCUUGUUGGUGCCAGAAGGCAUGUCUUUUGACAUGAGGAUCACCCAUGUGUUGUCGUUGGCG [salish99_SSNG1_r04_613] (Eterna round: R96, puzzle: Same State NG 1)"
discrete_label = "rule not met"

[[record]]
biopolymer_sequence = "GUUAUUUAUGCAGGAUAUGAUUAACAUGAGGAUCACCCAUGUGGUGUUGUGAGUAAGGAGAGUGAUCAGAAGGGCAUUUUUUUU [JMF's solution 77] (Eterna round: R96, puzzle: Same State NG 2)"
discrete_label = "rule met"

[[record]]
biopolymer_sequence = "GCCAUCGUGUGAGGAUAUGGCACCGAAACGGUGCCAGAAGGCAUGUCAAUUGACAUGAGGAUCACCCAUGUAUUAGCGAUGGCA [Mat - Same State NG 1 - JL mod - D86] (Eterna round: R96, puzzle: Same State NG 1)"
discrete_label = "rule met"

[[record]]
biopolymer_sequence = "UAGAUUCACGUAGGAUAUCGACCUACAUGAGGAUCACCCAUGUUUUUGAAUAGAUUUUUUUGUUACGAGAAGGACGUUAUGUAU [JR_SSNG2_Sub064] (Eterna round: R96, puzzle: Same State NG 2)"
discrete_label = "rule met"

[[record]]
biopolymer_sequence = "GUGGAGGGUUGAGGAUAUUGAUUGCAUAUGUUUAACAUGAGGAUCACCCAUGUGGGUUGCGGUUUCGAGAAGGUAGGUUGCUGG [salish99_SSNG2_r04_042] (Eterna round: R96, puzzle: Same State NG 2)"
discrete_label = "rule not met"

[[record]]
biopolymer_sequence = "CCCUUCGGCACAUGAGGAUCACCCAUGUUUUAGUGGAAGAGGUAGGAUAUGGCUGGGAGCAGAAGCCAGAAGGACCAAAUAAAU [Attiatan] (Eterna round: R96, puzzle: Same State NG 3)"
discrete_label = "rule not met"

[[record]]
biopolymer_sequence = "GUAGCAUACCGAGGAUAUUCAUUACAUGAGGAUCACCCAUGUUAGGCCAGCAUUAGCUGGCCUUGGGAGAAGGCGGAAUGCUAC [Xeonanis - 20 Mod53] (Eterna round: R96, puzzle: Same State NG 2)"
discrete_label = "rule not met"

[[record]]
biopolymer_sequence = "ACAUGAGGAUCACCCAUGUAACCAAGAGAGAGAGCACGGACGCAGGAUAUGCGGCGACGAGCGGAGCAGAAGGGCGCCUCAUAU [Alacarus NG 3 Attempt 1] (Eterna round: R96, puzzle: Same State NG 3)"
discrete_label = "rule met"

[[record]]
biopolymer_sequence = "UAUCUCAUGUAAGGAUAUGCAGCCGUUUCGGCUGCAGAAGGUACUAUAAUACAUGAGGAUCACCCAUGUCUCUCGCAUUGCGAG [JL SSNG1 1.49] (Eterna round: R96, puzzle: Same State NG 1)"
discrete_label = "rule met"

[[record]]
biopolymer_sequence = "AUUGCUGUCACAGGAUAUCAUGCGGAAAUCGCGUGAGAAGGGUGGACUCUGUCAUUCACGGAGGACAUGAGGAUCACCCAUGUC [SS NG10LRO18] (Eterna round: R96, puzzle: Same State NG 1)"
discrete_label = "rule not met"


###

System: K4 kissing-loop RNA reporter;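 note: bound reporter read as fluorescence of individual clusters on recovered sequencing chips by microscopy, with normalized cluster intensities fitted with a binding model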
method.summary: apparent KD of K4 kissing-loop reporter; higher = weaker reporter binding
applied.conditions: Eterna round: R107; input ligand: theophylline 20 uM
# apparent KD of K4 kissing-loop reporter values compiled below
observed.property: apparent KD of K4 kissing-loop reporter

[[record]]
biopolymer_sequence = "UUUCGUUUCGUCUGACAUAAUUGGCUAGAAGGAGCGGUAAAAUUACCAGGUAGGUCGCUAGCCCAGUGAUGUUGGGACUAGCAUA [Onqudi]"
data_value = "156 nM"

[[record]]
biopolymer_sequence = "GAGGUACAGGCGGCCGCCACUAGUGAUGUUAGUGAUAGAAGAUAUAGUAAAUAUCGGCAUGUAGAUAGGACCGGGCCUGGUGGAG [vvgtcmullin]"
data_value = "327 nM"

[[record]]
biopolymer_sequence = "GCUCAGGAGUGAUGUUCCAAGUGAUGUUAACGAGGACCGGUACGGCCGCCACUCGAUACGGCCGGACCGUAGGAUAAACUAGAGC [Same State - Tryptophan A (Freestyle 9)]"
data_value = "313 nM"

[[record]]
biopolymer_sequence = "UGAUAGGACAGAAGGAGCGGCAGUGAUGUUGCCAAAAGGUUAAGGUGUCAAAAGACACCCUGCCAGGUAGGUCGCUGUCCUAUCU"
data_value = "214 nM"

[[record]]
biopolymer_sequence = "GCAGACACGCAGUGAUGUUGCGAAACGGAAGGAGCGCGUGAAAACGCAGGUAGGUCGCCGAAACAUAAAUUAUAAUUUUGUUUGC [Arginine A K4 13]"
data_value = "240 nM"

[[record]]
biopolymer_sequence = "GGUAGCAUGGCGGCCGCCACUGUCUAGUGAUGUUAGACCCGACGUGGAUUCAAGACAGUCGGAAACAGGACCGGGCCAUGCUACC"
data_value = "163 nM"


###

# apparent KD of MS2 coat protein values compiled below
Test system: MS2 coat protein
method.summary: apparent KD of MS2 coat protein; designed switch direction (-1 OFF switch, 1 ON switch): -1; higher = weaker reporter binding
applied.conditions: input ligand: none
observed.property: apparent KD of MS2 coat protein (nM)

[[record]]
biopolymer_sequence = "CAUGAUUGACGAGGAUAUUGUACUACAUCACGACGAGAAGGCGUCUGUCACAUGAGGAUCACCCAUGUGAGACUGGUGAAUGAG [Ex NG1 #80] (Eterna round: R96, puzzle: Exclusion NG 1)"
data_value = 26.2

[[record]]
biopolymer_sequence = "ACCUCACAUGAGGAUCACCCAUGUCAGGAUAUCUUUUAUUGCAGCAAUCCUGUCGCUGAGAGAAGGGACAUUAA [EX1 #26] (Eterna round: R97, puzzle: Exclusion 1)"
data_value = 26.5

[[record]]
biopolymer_sequence = "CGUCAGUGAGGAUAUGGUUUCGUGUACAUGAGGAUCACCCAUGUUUCUUGGGACUAAUUACUAGAAGGCACUGACG [JR_Ex5_Sub033] (Eterna round: R97, puzzle: Exclusion 5)"
data_value = 14

[[record]]
biopolymer_sequence = "UUUAAUCGUGACAUGGGUGACAUGAGGAUCACCCAUGUCACAAGCUUUUUGCUCGUCUUAUAAUUAACCCAUGUCAC [LRO Sensor-off var1-11 mod of Stov1-13-A1 by Brourd] (Eterna round: R97, puzzle: Sensor, turn-off variant 1)"
data_value = 15.6

[[record]]
biopolymer_sequence = "AGGUCACAUGAGGAUCACCCAUGUGAGGAUAUAGACUCAAGAGCUUCGGCUCUCAAGUUUAGAAGGCGCAAUGA [EX1 #52] (Eterna round: R97, puzzle: Exclusion 1)"
data_value = 31.2

